The reported measurements were obtained from paper PMC10058583.

assay: Pharmacokinetic studies in C57BL/6 mice (plasma and tissues); type: in vivo, mouse; settings: both sexes, C57BL/6, mouse, plasma, iv, i.v. (5mg/kg)
measured.parameter: AUC(0-inf) (ng·h/mL)

>>> recorded_number("COc1cc(C(=O)O[C@@H]2Cc3c(O)cc(O)cc3O[C@H]2c2cc(O)c(O)c(O)c2)c(F)c(O)c1O [Compound 1c]")
1390

###

test: Pharmacokinetic studies in C57BL/6 mice (plasma and tissues); type: in vivo, mouse; conditions: both sexes, C57BL/6, mouse, inhaled or intranasal, IN (60 mg/kg), plasma
measured.parameter: Tmax (h)

>>> recorded_number("COc1cc(C(=O)O[C@@H]2Cc3c(O)cc(O)cc3O[C@H]2c2cc(O)c(O)c(O)c2)c(F)c(O)c1O")
2

###

assay: Pharmacokinetic studies in C57BL/6 mice (plasma and tissues); assay type: in vivo, mouse; conditions: both sexes, C57BL/6, mouse, plasma, iv, i.v. (5mg/kg)
measured.parameter: Cmax (ng/mL)

>>> recorded_number("COc1cc(C(=O)O[C@@H]2Cc3c(O)cc(O)cc3O[C@H]2c2cc(O)c(O)c(O)c2)c(F)c(O)c1O")
657

###

assay: Pharmacokinetic studies in C57BL/6 mice (plasma and tissues); format: in vivo, mouse; conditions: both sexes, C57BL/6, mouse, inhaled or intranasal, IN (60 mg/kg), brain
measured.parameter: Cmax (ng/mL)

>>> recorded_number("COc1cc(C(=O)O[C@@H]2Cc3c(O)cc(O)cc3O[C@H]2c2cc(O)c(O)c(O)c2)c(F)c(O)c1O")
18

###

experiment: Pharmacokinetic studies in C57BL/6 mice (plasma and tissues); type: in vivo, mouse; conditions: both sexes, C57BL/6, mouse, plasma, iv, i.v. (5mg/kg)
measured.parameter: half-life (h)

>>> recorded_number("COc1cc(C(=O)O[C@@H]2Cc3c(O)cc(O)cc3O[C@H]2c2cc(O)c(O)c(O)c2)c(F)c(O)c1O [Compound 1c]")
3.2

###

We begin with a simple list: items and their reported half-life.
experiment: Pharmacokinetic studies in C57BL/6 mice (plasma and tissues); assay type: in vivo, mouse; details: both sexes, C57BL/6, mouse, PO (100 mg/kg), plasma
measured.parameter: half-life

>>> result("O=C(O[C@@H]1Cc2c(O)cc(O)cc2O[C@H]1c1cc(O)c(O)c(O)c1)c1c(F)c(O)c(O)c(O)c1F")
"12.7 h"
>>> result("O=C(O[C@@H]1Cc2c(O)cc(O)cc2O[C@@H]1c1cc(O)c(O)c(O)c1)c1cc(O)c(O)c(O)c1 [EGCG, epigallocatechin gallate, reference compound]")
"5.02 h"
>>> result("COc1cc(C(=O)O[C@@H]2Cc3c(O)cc(O)cc3O[C@H]2c2cc(O)c(O)c(O)c2)c(F)c(O)c1O")
"4.7 h"

###

assay: Pharmacokinetic studies in C57BL/6 mice (plasma and tissues); type: in vivo, mouse; settings: both sexes, C57BL/6, mouse, plasma, iv, i.v. (5mg/kg)
measured.parameter: Tmax (h)

>>> recorded_number("COc1cc(C(=O)O[C@@H]2Cc3c(O)cc(O)cc3O[C@H]2c2cc(O)c(O)c(O)c2)c(F)c(O)c1O [Compound 1c]")
0

###

experiment: Pharmacokinetic studies in C57BL/6 mice (plasma and tissues); assay type: in vivo, mouse; conditions: both sexes, C57BL/6, mouse, PO (100 mg/kg), brain
measured.parameter: Tmax (h)

>>> recorded_number("COc1cc(C(=O)O[C@@H]2Cc3c(O)cc(O)cc3O[C@H]2c2cc(O)c(O)c(O)c2)c(F)c(O)c1O")
2

###

assay: Pharmacokinetic studies in C57BL/6 mice (plasma and tissues); format: in vivo, mouse; conditions: both sexes, C57BL/6, mouse, PO (100 mg/kg), brain
measured.parameter: AUC(0-t)

>>> result("COc1cc(C(=O)O[C@@H]2Cc3c(O)cc(O)cc3O[C@H]2c2cc(O)c(O)c(O)c2)c(F)c(O)c1O")
"2390 ng·h/mL"

###

assay: Pharmacokinetic studies in C57BL/6 mice (plasma and tissues); format: in vivo, mouse; conditions: both sexes, C57BL/6, mouse, inhaled or intranasal, IN (60 mg/kg), plasma
measured.parameter: Cmax

>>> result("COc1cc(C(=O)O[C@@H]2Cc3c(O)cc(O)cc3O[C@H]2c2cc(O)c(O)c(O)c2)c(F)c(O)c1O [Compound 1c]")
"2350 ng/mL"

###

experiment: Pharmacokinetic studies in C57BL/6 mice (plasma and tissues); format: in vivo, mouse; conditions: both sexes, C57BL/6, mouse, inhaled or intranasal, IN (60 mg/kg), plasma
measured.parameter: AUC(0-inf)

>>> result("COc1cc(C(=O)O[C@@H]2Cc3c(O)cc(O)cc3O[C@H]2c2cc(O)c(O)c(O)c2)c(F)c(O)c1O [Compound 1c]")
"16100 ng·h/mL"

###

experiment: Pharmacokinetic studies in C57BL/6 mice (plasma and tissues); type: in vivo, mouse; conditions: both sexes, C57BL/6, mouse, PO (100 mg/kg), brain
measured.parameter: Cmax (ng/mL)

>>> recorded_number("COc1cc(C(=O)O[C@@H]2Cc3c(O)cc(O)cc3O[C@H]2c2cc(O)c(O)c(O)c2)c(F)c(O)c1O")
110

###

experiment: Pharmacokinetic studies in C57BL/6 mice (plasma and tissues); type: in vivo, mouse; conditions: both sexes, C57BL/6, mouse, PO (100 mg/kg), plasma
measured.parameter: Tmax (min)

>>> recorded_number("O=C(O[C@@H]1Cc2c(O)cc(O)cc2O[C@H]1c1cc(O)c(O)c(O)c1)c1c(F)c(O)c(O)c(O)c1F")
30
>>> recorded_number("COc1cc(C(=O)O[C@@H]2Cc3c(O)cc(O)cc3O[C@H]2c2cc(O)c(O)c(O)c2)c(F)c(O)c1O")
60

###

experiment: Pharmacokinetic studies in C57BL/6 mice (plasma and tissues); format: in vivo, mouse; settings: both sexes, C57BL/6, mouse, plasma, iv, i.v. (5mg/kg)
measured.parameter: AUC(0-t) (ng·h/mL)

>>> recorded_number("COc1cc(C(=O)O[C@@H]2Cc3c(O)cc(O)cc3O[C@H]2c2cc(O)c(O)c(O)c2)c(F)c(O)c1O [Compound 1c]")
1280

###

assay: Pharmacokinetic studies in C57BL/6 mice (plasma and tissues); assay type: in vivo, mouse; details: both sexes, C57BL/6, mouse, plasma, other: intranasal (IN), 60 mg/kg, IN (60 mg/kg), plasma, read-out: F (absolute bioavailability)
measured.parameter: bioavailability (%)

>>> recorded_number("COc1cc(C(=O)O[C@@H]2Cc3c(O)cc(O)cc3O[C@H]2c2cc(O)c(O)c(O)c2)c(F)c(O)c1O")
100

###

Biological target: human DYRK2 isoform 1 (6xHis-tagged) (Homo sapiens)
Sequence (Q92630 74-601 limits assumed): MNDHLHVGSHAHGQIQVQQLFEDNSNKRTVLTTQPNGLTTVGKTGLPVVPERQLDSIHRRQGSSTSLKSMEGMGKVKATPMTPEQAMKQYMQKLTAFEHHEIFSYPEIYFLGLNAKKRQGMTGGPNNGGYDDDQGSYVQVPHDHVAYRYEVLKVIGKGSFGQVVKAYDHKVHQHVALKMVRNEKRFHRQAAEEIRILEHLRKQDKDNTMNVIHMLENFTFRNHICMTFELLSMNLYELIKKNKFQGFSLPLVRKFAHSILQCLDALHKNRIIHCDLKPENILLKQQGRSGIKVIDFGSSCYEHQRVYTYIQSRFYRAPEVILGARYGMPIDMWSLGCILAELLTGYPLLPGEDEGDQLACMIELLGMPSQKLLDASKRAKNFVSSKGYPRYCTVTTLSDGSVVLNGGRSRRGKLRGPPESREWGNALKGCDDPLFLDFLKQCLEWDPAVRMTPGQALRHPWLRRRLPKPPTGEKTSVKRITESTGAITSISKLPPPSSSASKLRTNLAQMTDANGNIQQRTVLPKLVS
Assay: ELISA-based non-radioactive kinase assay, DYRK2
pIC50: −log10 of the molar value.
measured.parameter: pIC50

>>> recorded_number("COc1cc(N2CCN(C)CC2)ccc1Nc1nccc(-c2cn(C)c3cnccc23)n1")
5.76
>>> recorded_number("COc1cc(C(=O)O[C@@H]2Cc3c(O)cc(O)cc3O[C@H]2c2cc(O)c(O)c(O)c2)c(F)c(O)c1O")
6.48
>>> recorded_number("O=C(O[C@@H]1Cc2c(O)cc(O)cc2O[C@@H]1c1cc(O)c(O)c(O)c1)c1cc(O)c(O)c(O)c1 [EGCG, epigallocatechin gallate, reference compound]")
5.83
>>> recorded_number("O=C(O[C@@H]1Cc2c(O)cc(O)cc2O[C@H]1c1cc(O)c(O)c(O)c1)c1cc(O)c(O)c(O)c1 [GCG, reference compound]")
6.24
>>> recorded_number("O=C(O[C@@H]1Cc2c(O)cc(O)cc2O[C@H]1c1cc(O)c(O)c(O)c1)c1cc(O)c(O)c(O)c1F")
6.59
>>> recorded_number("O=C(O[C@@H]1Cc2c(O)cc(O)cc2O[C@H]1c1cc(O)c(O)c(O)c1)c1c(F)c(O)c(O)c(O)c1F")
6.74
